Where do these numbers come from? They come from PubChem BioAssay (NCI).

Tested on: MDA-MB-435
Assay: NCI tumour cell line growth inhibition, 48 h
Listed here are compounds together with their documented TGI.

{"Compound": "CC(=O)c1ccc2c(c1)c1cc(C(C)=O)ccc1n2CCNC(C)C", "TGI": "1.44 µM"}
{"Compound": "CCCCCCCCCCCCCCCCCc1cccc(OCOCCOC)c1C(=O)O", "TGI": "40.9 µM"}
{"Compound": "O=C1/C(=C\\Oc2ccc(F)cc2)N2CCC1CC2", "TGI": "> 100 µM"}
{"Compound": "Cc1nc(N)c(N2CCN(C(=O)O)CC2)c(=O)[nH]1", "TGI": "> 100 µM"}
{"Compound": "CC(C)C1C(=O)N(c2c(F)c(F)c(F)c(F)c2F)C(=S)N1CCS(=O)c1ccccc1 (configuration not stated)", "TGI": "32.3 µM"}
{"Compound": "CCCCCCCCCCCCOC1C(CNC(=O)C2OC3OC(C)(C)OC3C2NC(=O)Nc2ccc(CC(=O)OC)cc2)OC2OC(C)(C)OC21 (configuration not stated)", "TGI": "> 100 µM"}
{"Compound": "O=C(O)CN1C=C(C(=O)c2cc3ccccc3n2S(=O)(=O)c2ccccc2)CCC1", "TGI": "> 100 µM"}
{"Compound": "COc1ccc(N=NC(=O)NC(Cc2ccccc2)C(=O)O)cc1 (configuration not stated)", "TGI": "> 100 µM"}
{"Compound": "O=Nc1ccc(O)c(=O)cc1", "TGI": "13.2 µM"}
{"Compound": "CCN1C(=S)N(c2ccccc2)C2NC(=S)N(/N=C/C=C/c3ccccc3OC)C21 (configuration not stated)", "TGI": "0.337 µM"}
{"Compound": "CCOC(=O)c1c[nH]c2c(Sc3ccccc3)nccc2c1=O", "TGI": "> 100 µM"}
{"Compound": "CC#CC(O)(C(=O)OCCCN(C)C)C1CCCCC1 (configuration not stated)", "TGI": "> 100 µM"}
{"Compound": "CCN(CCCN(C)C)Cc1cc(I)cc(C)c1O", "TGI": "31.6 µM"}
{"Compound": "S=c1[nH]nc(CNc2ccc(-c3n[nH]c(=S)n3-c3ccc(Cl)cc3)cc2)n1-c1ccc(Cl)cc1", "TGI": "> 100 µM"}
{"Compound": "COC(=O)C(NC(=O)C(CC(=O)OC(C)(C)C)NC(=O)OC(C)(C)C)C(O)c1ccccc1 (configuration not stated)", "TGI": "> 100 µM"}
{"Compound": "Cc1cn([C@@H]2C[C@@H]2CO)c(=O)[nH]c1=O", "TGI": "> 100 µM"}
{"Compound": "COc1cc(OC)c2c(c1)OC(c1ccccc1)CC2=O (configuration not stated)", "TGI": "> 10 µM"}
{"Compound": "CN(C)CCCc1cccc2[nH]c3c(c12)CN(C)CC3", "TGI": "> 100 µM"}
{"Compound": "Clc1ccccc1/C=c1\\nc(-c2ccccc2)n2c1nc1ccccc12", "TGI": "> 100 µM"}
{"Compound": "COc1ccc(N=N/C(=N/NC(=O)c2ccc(C)cc2)c2ccc(N(CCC#N)CCC#N)cc2OC)cc1", "TGI": "> 100 µM"}
{"Compound": "CC(O)(Cc1ccccc1C#N)Cc1ccccc1C#N", "TGI": "> 100 µM"}
{"Compound": "C#C[C@]1(O)CC[C@H]2[C@@H]3CCC4=C/C(=N/OCCN(C)C)CC[C@]4(C)[C@H]3CC[C@@]21C", "TGI": "32.2 µM"}
